# IC50 values compiled below
Tested on: SMN2 mRNA
measurement_notes: Splicing RT-qPCR gene panel, SMN2 canonical junction (CJ) mRNA
Type: cell-based
run_conditions: Homo sapiens; Table 8; larger gene panel, decrease in CJ mRNA levels

Known results for compounds:
* COc1c(-c2nc3sc(C4CCNCC4)cc3s2)cc(F)c2nn(C)cc12 | > 10000 nM
* Cn1cc2cc(-c3cc4cn(C5CCNCC5)nc4s3)ncc2n1 | 100 to 1000 nM
* Cc1cn2cc(-c3nc4sc(C5CCNCC5)cc4s3)ccc2n1 | < 100 nM
* CCN1CCC(n2cc3cc(-c4cc(F)c5nn(C)cc5c4)sc3n2)CC1 | < 100 nM
* CN1CCC(N(C)c2cc3sc(-c4cc(F)c5nn(C)cc5c4)nc3s2)CC1 | 100 to 1000 nM
* Cn1cc2cc(-c3cc4cn(C5CCNCC5)nc4s3)cc(F)c2n1 | < 100 nM
* Cc1cn2cc(-n3cc4sc(C5CCNCC5)cc4n3)cc(F)c2n1 | 100 to 1000 nM
* Cn1cc2cc(N3Cc4sc(C5CCNCC5)cc4C3=O)ncc2n1 | 100 to 1000 nM

Here's the next entry for you.
IC50 reading for Cn1cc2cc(-c3cc4nn(C5CCNCC5)cc4s3)cc(F)c2n1 : < 100 nM
